The entries below are paired with their reported DC50.
# assayed_system: EGFR in BAF3-LTC (Baf3-L858R-T780M-C797S) (Homo sapiens, UniProt P00533, C797S/L858R/T790M)
# Sequence (P00533 25-1210 T790M/C797S/L858R): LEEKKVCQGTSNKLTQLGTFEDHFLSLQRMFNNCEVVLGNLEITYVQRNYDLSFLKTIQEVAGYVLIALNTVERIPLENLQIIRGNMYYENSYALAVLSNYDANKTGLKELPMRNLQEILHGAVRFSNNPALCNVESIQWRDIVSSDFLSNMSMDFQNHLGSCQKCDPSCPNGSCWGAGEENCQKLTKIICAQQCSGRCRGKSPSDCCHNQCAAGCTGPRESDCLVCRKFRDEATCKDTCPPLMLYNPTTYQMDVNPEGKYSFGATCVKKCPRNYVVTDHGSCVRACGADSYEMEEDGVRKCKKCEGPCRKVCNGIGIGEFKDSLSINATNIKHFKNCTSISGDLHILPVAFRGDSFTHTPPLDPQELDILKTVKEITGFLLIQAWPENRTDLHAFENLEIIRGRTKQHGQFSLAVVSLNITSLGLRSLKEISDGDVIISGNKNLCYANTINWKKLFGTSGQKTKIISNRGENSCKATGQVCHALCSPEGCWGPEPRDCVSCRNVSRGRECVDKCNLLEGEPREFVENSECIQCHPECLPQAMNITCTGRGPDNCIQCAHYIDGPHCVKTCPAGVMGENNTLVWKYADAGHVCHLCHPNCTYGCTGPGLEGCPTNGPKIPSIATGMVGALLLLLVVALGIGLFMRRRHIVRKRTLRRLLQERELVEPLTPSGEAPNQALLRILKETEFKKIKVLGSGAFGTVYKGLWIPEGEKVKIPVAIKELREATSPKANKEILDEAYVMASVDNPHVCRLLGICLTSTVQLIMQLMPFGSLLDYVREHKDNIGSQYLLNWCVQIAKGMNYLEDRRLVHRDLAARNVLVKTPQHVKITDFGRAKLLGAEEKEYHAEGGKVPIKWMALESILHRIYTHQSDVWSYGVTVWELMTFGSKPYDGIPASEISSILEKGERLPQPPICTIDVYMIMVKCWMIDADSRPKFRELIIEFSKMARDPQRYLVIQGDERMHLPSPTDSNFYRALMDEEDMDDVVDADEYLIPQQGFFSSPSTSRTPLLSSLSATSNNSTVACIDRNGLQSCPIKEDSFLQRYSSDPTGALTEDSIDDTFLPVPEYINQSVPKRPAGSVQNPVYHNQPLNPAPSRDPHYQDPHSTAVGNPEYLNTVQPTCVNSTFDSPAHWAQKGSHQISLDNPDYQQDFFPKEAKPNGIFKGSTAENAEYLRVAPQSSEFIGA
# protocol: EGFR PROTAC HTRF experiment (total EGFR degradation)
# Assay type: cell-based
# condition_context: BAF3-LTC cells, 16 hours incubation

Some compounds with recorded DC50:
>>> observed_value("CCc1cc(Nc2ncc(Cl)c(Nc3ccccc3C(=O)NC)n2)c(OC)cc1N1CCN(CCN2CCC(c3ccc(NC4CCC(=O)NC4=O)cc3)CC2)CC1 (centres unmarked)")
"10 to 100 nM"
>>> observed_value("CNC(=O)c1ccccc1Nc1nc(Nc2cc(C)c(N3CCN(CCN4CCC(c5ccc(NC6CCC(=O)NC6=O)cc5)CC4)CC3)cc2OC)ncc1Cl (centres unmarked)")
"100 to 1000 nM"

# get_value(readout='DC50', item= CCc1cc(Nc2ncc(Cl)c(Nc3ccccc3C(=O)NC)n2)c(OC)cc1N1CCN(C(=O)CC2(O)CCN(c3ccc(NC4CCC(=O)NC4=O)cc3F)CC2)CC1 (centres unmarked) ) 100 to 1000 nM

Record request: DC50 value, item CCc1cc(Nc2ncc(Cl)c(Nc3ccccc3C(=O)NC)n2)c(OC)cc1N1CC2CCC(C1)N2C(=O)CN1CCC(c2ccc(NC3CCC(=O)NC3=O)cc2)CC1 (centres unmarked) 10 to 100 nM

###

# protocol: Pharmacokinetic test on male SD rats
# Type: in vivo
# condition_context: gavage (p.o.), 10 mg/kg, plasma
value_kind: HL_ (h)

// known answers, use as guide
>>> observed_value("CCc1cc(Nc2ncc(Br)c(Nc3ccccc3C(=O)NC)n2)c(OC)cc1N1CCN(C(=O)CN2CCC(c3ccc4c(N5CCC(=O)NC5=O)nn(C)c4c3)C(F)(F)C2)CC1 (centres unmarked) [Compound T-014]")
3.37
>>> observed_value("COc1cc(N2CCN(C(=O)CN3CCC(c4ccc(NC5CCC(=O)NC5=O)cc4)CC3)CC2)ccc1Nc1ncc(Cl)c(Nc2ccccc2C(C)=O)n1 (centres unmarked) [Control Compound 1, reference compound]")
3.47

[a] CCc1cc(Nc2ncc(Cl)c(Nc3ccccc3C(=O)NC)n2)c(OC)cc1N1CCN(C(=O)CN2CCN(c3ccc(NC4CCC(=O)NC4=O)cc3F)CC2)CC1 (centres unmarked) [Compound T-029]
[b] CCc1cc(Nc2ncc(Cl)c(Nc3ccccc3C(=O)NC)n2)c(OC)cc1N1CCN(C(=O)CN2CCC(c3ccc(NC4CCC(=O)NC4=O)cc3C(F)(F)F)CC2)CC1 (centres unmarked) [Compound T-074]
[c] CCc1cc(Nc2ncc(Cl)c(Nc3ccccc3C(=O)NC)n2)c(OC)cc1N1CCN(C(=O)CN2CCC(c3ccc(NC4CCC(=O)NC4=O)cc3F)CC2)CC1 (centres unmarked) [Compound T-067]
Rank entries according to their HL_, from the largest number down. Provide the labels, sequenced as the question asks. b, c, a

###

# protocol: Pharmacokinetic test on male SD rats
# Type: in vivo
# condition_context: rat, po, gavage (p.o.), 10 mg/kg, plasma
value_kind: AUC(0-inf) (ng·h/mL)

Sample records with AUC(0-inf):
>>> observed_value("CCc1cc(Nc2ncc(Cl)c(Nc3ccccc3C(=O)NC)n2)c(OC)cc1N1CCN(C(=O)CN2CCC(c3ccc(NC4CCC(=O)NC4=O)cc3)CC2)[C@@H](C)C1 (some centres unmarked)")
10200
>>> observed_value("CCc1cc(Nc2ncc(Cl)c(Nc3ccccc3C(=O)NC)n2)c(OC)cc1N1CCN(C(=O)CN2CCC(c3ccc(NC4CCC(=O)NC4=O)cc3F)CC2)CC1 (centres unmarked)")
11300

[A] CCc1cc(Nc2ncc(Cl)c(Nc3ccccc3C(=O)NC)n2)c(OC)cc1N1CCN(C(=O)CN2CCC(c3ccc(NC4CCC(=O)NC4=O)cc3C(F)(F)F)CC2)CC1 (centres unmarked)
[B] CCc1cc(Nc2ncc(Cl)c(Nc3ccccc3C(=O)NC)n2)c(OC)cc1N1CCN(C(=O)CN2CCN(c3ccc(NC4CCC(=O)NC4=O)cc3F)CC2)CC1 (centres unmarked)
[C] COc1cc(N2CCN(C(=O)CN3CCC(c4ccc(NC5CCC(=O)NC5=O)cc4)CC3)CC2)ccc1Nc1ncc(Cl)c(Nc2ccccc2C(C)=O)n1 (centres unmarked) [Control Compound 1, reference compound]
Number of compounds to sort: 3. Sort criterion: AUC(0-inf), ascending. Ranked list of labels, please, in the requested order. C, B, A
(C: 2090 ng·h/mL, B: 8210 ng·h/mL, A: 20200 ng·h/mL)

###

Some compounds, each annotated with its measured DC50.
# assayed_system: EGFR in BAF3-DTC (Baf3-19del-T780M-C797S) (Homo sapiens, UniProt P00533, C797S/DEL746-750/T790M)
# Sequence (P00533 with tags, fused parts or gaps DEL746-750/T790M/C797S): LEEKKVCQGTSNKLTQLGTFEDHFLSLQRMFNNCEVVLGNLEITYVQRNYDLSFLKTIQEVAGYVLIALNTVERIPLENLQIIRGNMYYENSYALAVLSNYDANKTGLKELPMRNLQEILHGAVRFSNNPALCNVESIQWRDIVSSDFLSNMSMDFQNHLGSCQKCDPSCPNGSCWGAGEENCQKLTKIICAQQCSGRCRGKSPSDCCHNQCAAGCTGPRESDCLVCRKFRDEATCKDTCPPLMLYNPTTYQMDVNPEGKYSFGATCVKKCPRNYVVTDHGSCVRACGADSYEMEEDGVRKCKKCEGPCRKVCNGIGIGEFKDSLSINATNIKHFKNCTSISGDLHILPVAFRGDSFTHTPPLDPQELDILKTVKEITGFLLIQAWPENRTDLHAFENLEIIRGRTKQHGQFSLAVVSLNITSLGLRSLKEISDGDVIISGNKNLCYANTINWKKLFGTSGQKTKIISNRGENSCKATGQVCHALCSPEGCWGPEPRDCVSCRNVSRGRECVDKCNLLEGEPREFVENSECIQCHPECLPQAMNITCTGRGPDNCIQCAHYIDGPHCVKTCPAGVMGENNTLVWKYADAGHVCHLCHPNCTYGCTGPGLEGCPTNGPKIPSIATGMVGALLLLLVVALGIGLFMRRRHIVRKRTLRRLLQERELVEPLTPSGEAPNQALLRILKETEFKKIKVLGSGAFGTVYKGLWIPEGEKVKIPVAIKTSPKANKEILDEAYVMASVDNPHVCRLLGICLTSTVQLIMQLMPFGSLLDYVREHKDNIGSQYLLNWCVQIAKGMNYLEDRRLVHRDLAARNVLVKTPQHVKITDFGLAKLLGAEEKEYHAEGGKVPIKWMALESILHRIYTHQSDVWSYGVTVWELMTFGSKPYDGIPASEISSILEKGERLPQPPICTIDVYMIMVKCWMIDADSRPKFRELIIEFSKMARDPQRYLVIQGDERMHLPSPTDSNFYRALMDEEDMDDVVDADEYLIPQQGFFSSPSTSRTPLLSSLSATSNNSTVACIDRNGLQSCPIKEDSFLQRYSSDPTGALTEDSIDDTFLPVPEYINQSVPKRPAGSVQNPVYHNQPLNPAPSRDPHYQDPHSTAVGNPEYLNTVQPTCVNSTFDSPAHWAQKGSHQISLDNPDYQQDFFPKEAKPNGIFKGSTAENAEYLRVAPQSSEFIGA
# protocol: EGFR PROTAC HTRF experiment (total EGFR degradation)
# Type: cell-based
# condition_context: BAF3-DTC cells, 16 hours incubation

Use these answered entries as a reference point.
>>> observed_value("CCc1cc(Nc2ncc(Cl)c(Nc3ccccc3C(=O)NC)n2)c(OC)cc1N1CC2CCC(C1)N2C(=O)CN1CCC(c2ccc(NC3CCC(=O)NC3=O)cc2)CC1 (stereo not drawn) [Compound T-109]")
"10 to 100 nM"
>>> observed_value("CCc1cc(Nc2ncc(Cl)c(Nc3ccccc3C(=O)NC)n2)c(OC)cc1N1CCN(C(=O)CC2(O)CCN(c3ccc(NC4CCC(=O)NC4=O)cc3F)CC2)CC1 (stereo not drawn) [Compound T-037]")
"100 to 1000 nM"

Here is another compound to look at.
What does the data say about its DC50? Entry: CCc1cc(Nc2ncc(Cl)c(Nc3ccccc3C(=O)NC)n2)c(OC)cc1N1CC2(CN(C(=O)CN3CCC(c4ccc(NC5CCC(=O)NC5=O)cc4)CC3)C2)C1 (stereo not drawn) [Compound T-080] 10 to 100 nM

###

# protocol: Pharmacokinetic test on male SD rats
# Assay type: in vivo
# condition_context: gavage (p.o.), 10 mg/kg, plasma
value_kind: HL_ (h)

The following compounds have reported results that may help.
>>> observed_value("CCc1cc(Nc2ncc(Cl)c(Nc3ccccc3C(=O)NC)n2)c(OC)cc1N1CCN(C(=O)CC2(O)CCN(c3ccc(NC4CCC(=O)NC4=O)cc3F)CC2)CC1 (centres unmarked)")
2.61
>>> observed_value("CCc1cc(Nc2ncc(Cl)c(Nc3ccccc3C(=O)NC)n2)c(OC)cc1N1CCN(CCN2CCC(c3ccc(NC4CCC(=O)NC4=O)cc3)CC2)CC1 (centres unmarked)")
9.28
>>> observed_value("CCc1cc(Nc2ncc(Cl)c(Nc3ccccc3C(=O)NC)n2)c(OC)cc1N1CCN(C(=O)CN2CCC(c3ccc(NC4CCC(=O)NC4=O)cc3)CC2)[C@H](C)C1 (some centres unmarked)")
4.02

[P] CCc1cc(Nc2ncc(Cl)c(Nc3ccccc3C(=O)NC)n2)c(OC)cc1N1CCN(C(=O)CN2CCC(c3ccc4c(N5CCC(=O)NC5=O)nn(C)c4c3)C(F)(F)C2)CC1 (centres unmarked)
[Q] CCc1cc(Nc2ncc(Cl)c(Nc3ccccc3C(=O)NC)n2)c(OC)cc1N1CCN(C(=O)CN2CCC(c3ccc(NC4CCC(=O)NC4=O)cc3)CC2)[C@@H](C)C1 (some centres unmarked)
Kindly compare P with Q and tell me which has the lower HL_ figure. Please identify the chosen entry by its label. P
(P: 3.09 h, Q: 5.45 h)

###

# System: H1975
# protocol: Cell antiproliferative assay (CTG, 72 h)
# Type: cell-based
# condition_context: Homo sapiens, NCI-H1975, H1975 (EGFR T790M/L858R)
value_kind: IC50

>>> observed_value("COc1cc(N2CCN(C(=O)CN3CCC(c4ccc(NC5CCC(=O)NC5=O)cc4)CC3)CC2)ccc1Nc1ncc(Cl)c(Nc2ccccc2-c2ncc[nH]2)n1 (centres unmarked)")
"0.01 to 0.1 µM"
>>> observed_value("C=Cc1cc(Nc2ncc(Cl)c(Nc3ccccc3C(=O)NC)n2)c(OC)cc1N1CCN(C(=O)CN2CCC(c3ccc(NC4CCC(=O)NC4=O)cc3)CC2)CC1 (centres unmarked)")
"0.01 to 0.1 µM"
>>> observed_value("CCc1cc(Nc2ncc(Cl)c(Nc3ccccc3C(=O)NC)n2)c(OC)cc1N1CCN(C(=O)CC2(O)CCN(c3ccc(NC4CCC(=O)NC4=O)cc3F)CC2)CC1 (centres unmarked)")
"0.01 to 0.1 µM"
>>> observed_value("CNC(=O)c1ccccc1Nc1nc(Nc2cc(C)c(N3CCN(CCN4CCC(c5ccc(NC6CCC(=O)NC6=O)cc5)CC4)CC3)cc2OC)ncc1Cl (centres unmarked)")
"< 0.01 µM"

Item CCc1cc(Nc2ncc(Cl)c(Nc3ccccc3C(=O)NC)n2)c(OC)cc1N1CCN(C(=O)CN2CCC(c3ccc(NC4CCC(=O)NC4=O)cc3)CC2)[C@H](C)C1 (some centres unmarked) has what recorded IC50? 0.01 to 0.1 µM
